experiment: in vitro; details: rat, gh3-tre-luc cells, AC50 (uM) modified / 1000
Counter-ions that a name gives are not always drawn. Non-standard residues stand in square brackets, D forms with d. Residues, ends and D or L forms follow the SMILES beside them. pGlu = O=C1CC[C@@H](C(=O)O)N1; Thz = O=C(O)[C@@H]1CSCN1
Catalogue of CC50 at 24 h values

[
  {
    "compound": "O=[N+]([O-])c1ccc(Oc2ccc([N+](=O)[O-])cc2)cc1",
    "CC50 at 24 h": "> 90 µM"
  },
  {
    "compound": "Nc1ccc(C(=O)O)c(O)c1 [Sodium 4-aminosalicylate]",
    "CC50 at 24 h": "> 50 µM"
  },
  {
    "compound": "O=C(NS(=O)(=O)/C=C/c1cccs1)c1ccc(F)cc1Br",
    "CC50 at 24 h": "> 90 µM"
  },
  {
    "compound": "CCCCC(CC)C(=O)Cl (centres unmarked) [2-Ethylhexanoyl chloride]",
    "CC50 at 24 h": "> 90 µM"
  },
  {
    "compound": "O=S1(=O)OC(c2ccc(O)cc2)(c2ccc(O)cc2)c2ccccc21 [Phenol Red sodium salt]",
    "CC50 at 24 h": "46.9 µM"
  },
  {
    "compound": "O=C1Nc2ccccc2C1=O",
    "CC50 at 24 h": "> 90 µM"
  },
  {
    "compound": "COc1ccc(CCNC[C@H](O)c2ccc(O)cc2)cc1OC",
    "CC50 at 24 h": "> 50 µM"
  },
  {
    "compound": "CCCCCCCCSCC [Ethyl octyl sulfide]",
    "CC50 at 24 h": "> 90 µM"
  },
  {
    "compound": "C#CCOC(C(=O)OCCN(C)C)(c1ccccc1)c1ccccc1 [Pargeverine hydrochloride]",
    "CC50 at 24 h": "> 50 µM"
  },
  {
    "compound": "C[C@@H]1O[C@@H](OC[C@H]2O[C@@H](Oc3c(-c4ccc(OCCO)c(OCCO)c4)oc4cc(OCCO)cc(O)c4c3=O)[C@H](O)[C@@H](O)[C@@H]2O)[C@H](O)[C@H](O)[C@H]1O",
    "CC50 at 24 h": "> 50 µM"
  },
  {
    "compound": "C[C@]12CCC(=O)C=C1CC[C@@H]1[C@@H]2[C@@H](O)C[C@@]2(C)[C@H]1CC[C@]2(O)C(=O)CO [Hydrocortisone]",
    "CC50 at 24 h": "> 90 µM"
  },
  {
    "compound": "CC(=O)Nc1ccccc1O",
    "CC50 at 24 h": "> 90 µM"
  },
  {
    "compound": "Cc1ccn2nc(S(=O)(=O)Nc3c(F)cccc3F)nc2n1",
    "CC50 at 24 h": "> 90 µM"
  },
  {
    "compound": "CCCc1cc(C(N)=S)ccn1 [Prothionamide]",
    "CC50 at 24 h": "> 50 µM"
  },
  {
    "compound": "Cc1ncc2n1-c1ccc(Cl)cc1C(c1ccccc1F)=NC2 [Midazolam hydrochloride]",
    "CC50 at 24 h": "> 50 µM"
  },
  {
    "compound": "CC1(C)C(=O)NC(=O)N1CO [1-(Hydroxymethyl)-5,5-dimethylhydantoin]",
    "CC50 at 24 h": "> 90 µM"
  },
  {
    "compound": "C=C(C)CS(=O)(=O)O [Sodium 2-methylprop-2-ene-1-sulfonate]",
    "CC50 at 24 h": "> 90 µM"
  },
  {
    "compound": "CC(Oc1ccc(Oc2ncc(C(F)(F)F)cc2Cl)cc1)C(=O)O (centres unmarked)",
    "CC50 at 24 h": "> 90 µM"
  },
  {
    "compound": "Nc1nc(-c2ccccc2)cs1",
    "CC50 at 24 h": "> 90 µM"
  },
  {
    "compound": "CCCCCCCCC(=O)OCC(C)OC(=O)CCCCCCCC (centres unmarked) [Propylene glycol dipelargonate]",
    "CC50 at 24 h": "> 100 µM"
  },
  {
    "compound": "CCOC(=O)c1ccc(NC(=O)CN2CCCCC2)cc1",
    "CC50 at 24 h": "> 50 µM"
  },
  {
    "compound": "OCc1ccc(Cl)cc1Cl",
    "CC50 at 24 h": "> 90 µM"
  },
  {
    "compound": "CCC(C)CCCC(C)(C)O (centres unmarked)",
    "CC50 at 24 h": "> 90 µM"
  },
  {
    "compound": "COc1ccc(OC)c(OC)c1",
    "CC50 at 24 h": "> 90 µM"
  },
  {
    "compound": "CCOC(=O)C1=C[C@@H](OC(CC)CC)[C@H](NC(C)=O)[C@@H](N)C1 [Oseltamivir tartrate]",
    "CC50 at 24 h": "> 50 µM"
  },
  {
    "compound": "CCOC(=O)CC(O)(CC(=O)OCC)C(=O)OCC [Triethyl citrate]",
    "CC50 at 24 h": "> 90 µM"
  },
  {
    "compound": "CCCCCCCCC(CCCCCC)C(=O)O (centres unmarked)",
    "CC50 at 24 h": "> 90 µM"
  },
  {
    "compound": "COc1ccc(C[C@@H](C)NC[C@H](O)c2ccc(O)c(NC=O)c2)cc1 [Formoterol hemifumarate]",
    "CC50 at 24 h": "> 50 µM"
  },
  {
    "compound": "CC1=C(O)C(=O)C(C)O1 (centres unmarked) [4-Hydroxy-2,5-dimethyl-3(2H)furanone]",
    "CC50 at 24 h": "> 90 µM"
  },
  {
    "compound": "O=C1CC[C@@H](C(=O)N2CSC[C@H]2C(=O)O)N1 [Pidotimod] ([pGlu]-[Thz]-OH)",
    "CC50 at 24 h": "> 50 µM"
  },
  {
    "compound": "CC/C=C\\C#N",
    "CC50 at 24 h": "> 90 µM"
  },
  {
    "compound": "CCCSSCCC [Dipropyl disulfide]",
    "CC50 at 24 h": "> 90 µM"
  },
  {
    "compound": "Nc1ccc(C(=O)OCCCOC(=O)c2ccc(N)cc2)cc1 [Propane-1,3-diyl bis(4-aminobenzoate)]",
    "CC50 at 24 h": "> 90 µM"
  },
  {
    "compound": "C/C(=N\\C#N)N(C)Cc1ccc(Cl)nc1",
    "CC50 at 24 h": "> 90 µM"
  },
  {
    "compound": "CCOC(=O)c1cnc2cc(OCC(C)C)c(OCC(C)C)cc2c1O [Buquinolate]",
    "CC50 at 24 h": "> 50 µM"
  },
  {
    "compound": "O=C1Nc2ccc(Cl)cc2C(c2ccccc2)=NC1O (centres unmarked)",
    "CC50 at 24 h": "> 80 µM"
  },
  {
    "compound": "CC(N)CCCC(C)(C)O (centres unmarked) [Heptaminol hydrochloride]",
    "CC50 at 24 h": "> 50 µM"
  },
  {
    "compound": "Brc1c2ccccc2cc2ccccc12",
    "CC50 at 24 h": "> 90 µM"
  }
]
